B1: PPP2R2B (parent)
chain: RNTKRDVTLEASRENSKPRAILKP

Variants of: B1
experiment notes: protein stability index of a GFP-peptide fusion (GPS, HEK-293T) (PSI 1-6); higher = more stable;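 further: lentivirally expressed fusions sorted by FACS into six bins by GFP to DsRed ratio, PSI derived from sequencing read proportions per bin multiplied by bin number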
experimental parameters: c terminus: a fixed tail appended
measured property: protein stability index

{"residue sequence": "RNTKREVTLEASRENSKPRAILKP [D6E]", "measured value": 4.49}
{"residue sequence": "RNTKRDVTREASRENSKPRAILKP [L9R]", "measured value": 4.84}
{"residue sequence": "RNTKRDVTLLASRENSKPRAILKP [E10L]", "measured value": 3.6}
{"residue sequence": "RNTKRDVGLEASRENSKPRAILKP [T8G]", "measured value": 4.54}
{"residue sequence": "RNTKRDVTLSASRENSKPRAILKP [E10S]", "measured value": 4.38}
{"residue sequence": "RNTKRDVTLEASRENSKPRAILKW [P24W]", "measured value": 3.55}
{"residue sequence": "RNTKRDVTLEASRECSKPRAILKP [N15C]", "measured value": 4.13}
{"residue sequence": "RNTKRDVTLEASRENSKPRAELKP [I21E]", "measured value": 5.34}
{"residue sequence": "RNTKRDVTLEASRENSKSRAILKP [P18S]", "measured value": 4.72}
{"residue sequence": "RNTKDDVTLEASRENSKPRAILKP [R5D]", "measured value": 4.68}
{"residue sequence": "RNTKRDCTLEASRENSKPRAILKP [V7C]", "measured value": 3.77}
{"residue sequence": "RNTKRDVTLEASRINSKPRAILKP [E14I]", "measured value": 3.72}
{"residue sequence": "RNTKRDVTLEAYRENSKPRAILKP [S12Y]", "measured value": 4.18}
{"residue sequence": "SNTKRDVTLEASRENSKPRAILKP [R1S]", "measured value": 4.47}
{"residue sequence": "RNTKRDVTLEASRENSKTRAILKP [P18T]", "measured value": 4.54}
{"residue sequence": "RNCKRDVTLEASRENSKPRAILKP [T3C]", "measured value": 4.55}
{"residue sequence": "RNTKRDVTLEASREASKPRAILKP [N15A]", "measured value": 4.29}
{"residue sequence": "RNIKRDVTLEASRENSKPRAILKP [T3I]", "measured value": 4.45}
{"residue sequence": "RNTKRDVTLEASRHNSKPRAILKP [E14H]", "measured value": 4.49}
{"residue sequence": "RNTKRDVTLEASREYSKPRAILKP [N15Y]", "measured value": 4.09}
{"residue sequence": "RNTMRDVTLEASRENSKPRAILKP [K4M]", "measured value": 4.71}
{"residue sequence": "RNTKRDVTLEASRENSKPRAIPKP [L22P]", "measured value": 4.28}
{"residue sequence": "RNTKRDVTLEASRRNSKPRAILKP [E14R]", "measured value": 4.14}
{"residue sequence": "RNTKRDVTLEASRENSKPRAILKS [P24S]", "measured value": 4.49}
{"residue sequence": "RNTKRYVTLEASRENSKPRAILKP [D6Y]", "measured value": 3.79}
{"residue sequence": "RNTKRDVTQEASRENSKPRAILKP [L9Q]", "measured value": 5.07}
{"residue sequence": "RSTKRDVTLEASRENSKPRAILKP [N2S]", "measured value": 4.62}
{"residue sequence": "VNTKRDVTLEASRENSKPRAILKP [R1V]", "measured value": 4.44}
{"residue sequence": "RNTKRDVTLEASKENSKPRAILKP [R13K]", "measured value": 4.69}
{"residue sequence": "RNTKRDVTLEASWENSKPRAILKP [R13W]", "measured value": 3.56}
{"residue sequence": "RNTKRDVTLECSRENSKPRAILKP [A11C]", "measured value": 4.52}
{"residue sequence": "RNTKRDVTVEASRENSKPRAILKP [L9V]", "measured value": 4.59}
{"residue sequence": "RNTKRDVTLEASRENSQPRAILKP [K17Q]", "measured value": 4.81}
{"residue sequence": "INTKRDVTLEASRENSKPRAILKP [R1I]", "measured value": 4.61}
{"residue sequence": "RNTKRDVTLEASRENSKPRKILKP [A20K]", "measured value": 5.04}
{"residue sequence": "RLTKRDVTLEASRENSKPRAILKP [N2L]", "measured value": 3.72}
{"residue sequence": "RNTKRPVTLEASRENSKPRAILKP [D6P]", "measured value": 3.81}
